Cited source: ChEMBL document CHEMBL4689842

Tested on: U2OS
run.description: Incucyte cell viability with U2OS; further: filed as whole numbers so only -1 and 0 and 1 occur
Assay type: toxicity, cell-based
test.context: human, 0 h, 10 µM, compound concentration 10 uM, replicate number 2, timepoint 0 hours

{"structure": "O=C(Cc1ccc(-c2ccc(OCCN3CCOCC3)cc2)cn1)NCc1ccccc1", "Growth Rate": 0}
{"structure": "O=C(Nc1ccc(-c2ccnc(Nc3ccc(N4CCOCC4)cc3)n2)cc1)[C@@H]1CCCN1", "Growth Rate": 0}
{"structure": "c1ccc(Nc2nc3c(s2)CCCc2[nH]ncc2-3)nc1", "Growth Rate": 0}
{"structure": "O=C1N/C(=N/c2ccccc2F)S/C1=C\\c1ccc(C(=O)O)cc1", "Growth Rate": 1}

----------
System: Fibroblast
run.description: Multiplex assay against human fibroblast
Assay type: toxicity, cell-based
test.context: 48 h, 10 µM, compound concentration 10 uM, replicate 2
Param threshold (30%) applies to Population Mitotic Cells (%); output 1 when value >= threshold, 0 when value < threshold.

{"compound": "O=C(Nc1ccc(-n2nc(-c3cccnc3)cc2C(F)(F)F)cn1)c1ccc(-c2ccccc2)c(F)c1", "assayed.target": "Fibroblast", "assigned.class": 0}
{"compound": "Cl.O=C(c1ccc(Nc2nccc(-c3cc4ccccc4s3)n2)cc1)N1CCC(N2CCCC2)CC1", "assayed.target": "Fibroblast", "assigned.class": 1}
{"compound": "Cl.Oc1ccc2c3c1O[C@H]1c4[nH]c5c(c4C[C@@]4(O)[C@@H](C2)N(CC2CC2)CC[C@]314)C[C@@]1(O)[C@H]2Cc3ccc(O)c4c3[C@@]1(CCN2CC1CC1)[C@H]5O4", "assayed.target": "Fibroblast", "assigned.class": 1}
{"compound": "CN(C)C(=O)C(CCN1CCC(O)(c2ccc(Cl)cc2)CC1)(c1ccccc1)c1ccccc1.Cl [LOPERAMIDE HYDROCHLORIDE]", "assayed.target": "Fibroblast", "assigned.class": 0}
{"compound": "O=C1NC(=O)C(c2cnc3ccccn23)=C1c1cn2c3c(cc(F)cc13)CN(C(=O)N1CCCCC1)CC2", "assayed.target": "Fibroblast", "assigned.class": 0}
{"compound": "CCCS(=O)(=O)c1nc(NC2CC2)cc(-c2ccc3c(ccn3C3CC(C)(C)NC(C)(C)C3)c2)n1", "assayed.target": "Fibroblast", "assigned.class": 0}
{"compound": "Cc1cn(-c2cc(NC(=O)c3ccc(C)c(Nc4nccc(-c5cccnc5)n4)c3)cc(C(F)(F)F)c2)cn1", "assayed.target": "Fibroblast", "assigned.class": 0}
{"compound": "COc1cc(N2CCN(C)CC2)ccc1Nc1ncc2c(n1)N(C)c1ccccc1C(=O)N2C", "assayed.target": "Fibroblast", "assigned.class": 0}
{"compound": "O=C(Nc1ccc(-c2ccnc(Nc3ccc(N4CCOCC4)cc3)n2)cc1)[C@@H]1CCCN1", "assayed.target": "Fibroblast", "assigned.class": 1}
{"compound": "O=C1N/C(=N/c2ccccc2F)S/C1=C\\c1ccc(C(=O)O)cc1", "assayed.target": "Fibroblast", "assigned.class": 1}
{"compound": "CCCn1c(=O)c2[nH]c(-c3cnn(Cc4cccc(C(F)(F)F)c4)c3)nc2n(CC)c1=O", "assayed.target": "Fibroblast", "assigned.class": 1}
{"compound": "COCC(=O)NC/C=C/c1ccc2ncnc(Nc3ccc(Oc4ccc(C)nc4)c(C)c3)c2c1", "assayed.target": "Fibroblast", "assigned.class": 1}
{"compound": "CN1CCN(C(=O)C(C)(C)c2ccc(C(=O)Nc3cn4cc(-c5ccncc5)ccc4n3)cc2)CC1", "assayed.target": "Fibroblast", "assigned.class": 1}
{"compound": "CNc1cc(Oc2cc(C(=O)Nc3cc(N4CCN(C)CC4)cc(C(F)(F)F)c3)ccc2C)ncn1", "assayed.target": "Fibroblast", "assigned.class": 0}
{"compound": "CCOC(=O)c1c(C)[nH]c2ccc3c(c12)CN1CCc2cc(OC)ccc2C1O3 (stereo unspecified)", "assayed.target": "Fibroblast", "assigned.class": 1}
{"compound": "O=C(Nc1ccc(Cl)cc1)Nc1cccc(-c2cccc(N3CCCC3)n2)c1", "assayed.target": "Fibroblast", "assigned.class": 0}

----------
Known Population Apoptotic (%) of a selection of molecules
Test system: Fibroblast
run.description: Multiplex assay against human fibroblast
Assay type: toxicity, cell-based
test.context: 12 h, 10 µM, compound concentration 10 uM, replicate 1
reported.property: Population Apoptotic (%)

{"molecule": "CCOc1cc2ncc(C#N)c(Nc3ccc(OCc4ccccn4)c(Cl)c3)c2cc1NC(=O)/C=C/CN(C)C [NERATINIB]", "measured.number": 45}
{"molecule": "CN(C)C(=O)C(CCN1CCC(O)(c2ccc(Cl)cc2)CC1)(c1ccccc1)c1ccccc1.Cl [LOPERAMIDE HYDROCHLORIDE]", "measured.number": 64}
{"molecule": "CNc1cc(Oc2cc(C(=O)Nc3cc(N4CCN(C)CC4)cc(C(F)(F)F)c3)ccc2C)ncn1", "measured.number": 54}
{"molecule": "C=CCn1c(=O)c2cnc(Nc3ccc(N4CCN(C)CC4)cc3)nc2n1-c1cccc(C(C)(C)O)n1 [ADAVOSERTIB]", "measured.number": 44}

----------
Known Population Pyknosed Nuclei (%) of a selection of compounds
Test system: HEK-293T
run.description: Multiplex assay against HEK293T
Format: toxicity, cell-based
test.context: human, 48 h, 1 µM, compound concentration 1 uM, replicate 2

{"compound": "O=C(Cc1ccc(-c2ccc(OCCN3CCOCC3)cc2)cn1)NCc1ccccc1", "Population Pyknosed Nuclei (%)": 44}
{"compound": "Cc1cc(C)c(S(=O)(=O)N(Cc2ccc(-c3cccc(S(C)(=O)=O)c3)cc2)Cc2ccc(C(F)(F)F)o2)c(C)c1", "Population Pyknosed Nuclei (%)": 11}
{"compound": "CNc1cc(Oc2cc(C(=O)Nc3cc(N4CCN(C)CC4)cc(C(F)(F)F)c3)ccc2C)ncn1", "Population Pyknosed Nuclei (%)": 19}
{"compound": "CN(C)C(=O)C(CCN1CCC(O)(c2ccc(Cl)cc2)CC1)(c1ccccc1)c1ccccc1.Cl [LOPERAMIDE HYDROCHLORIDE]", "Population Pyknosed Nuclei (%)": 23}
{"compound": "Cl.O=c1c2cccn2c2ccccc2n1CCCN1CCC(c2ccc(Cl)cc2)CC1", "Population Pyknosed Nuclei (%)": 22}
{"compound": "CCn1c(=O)c(-c2ccc(-c3cncs3)cc2Cl)cc2cnc(Nc3ccc(N4CCN(C)CC4)cc3)nc21", "Population Pyknosed Nuclei (%)": 13}
{"compound": "COc1cc(N2CCN(C)CC2)ccc1Nc1ncc2c(n1)N(C)c1ccccc1C(=O)N2C", "Population Pyknosed Nuclei (%)": 20}
{"compound": "O=C(Nc1ccc(Cl)cc1)Nc1cccc(-c2cccc(N3CCCC3)n2)c1", "Population Pyknosed Nuclei (%)": 11}
{"compound": "Cc1cn(-c2cc(NC(=O)c3ccc(C)c(Nc4nccc(-c5cccnc5)n4)c3)cc(C(F)(F)F)c2)cn1", "Population Pyknosed Nuclei (%)": 14}
{"compound": "CCCS(=O)(=O)c1nc(NC2CC2)cc(-c2ccc3c(ccn3C3CC(C)(C)NC(C)(C)C3)c2)n1", "Population Pyknosed Nuclei (%)": 29}

----------
Tested on: Fibroblast
run.description: Multiplex assay against human fibroblast
Format: toxicity, cell-based
test.context: 24 h, 1 µM, compound concentration 1 uM, replicate 1

{"structure": "CCn1cc(-c2ccnc3[nH]c(-c4cccc(CN(C)C)c4)cc23)c(-c2ccc(NC(=O)N(C)C)cc2)n1", "assayed.target": "Fibroblast", "Population Normal (%)": 80}
{"structure": "COC(=N)c1nc2ccc3ncnc(Nc4ccc(OC)cc4F)c3c2s1", "assayed.target": "Fibroblast", "Population Normal (%)": 80}
{"structure": "CCc1cccc(CC)c1NC(=O)c1nn(C)c2c1CCc1cnc(Nc3ccc(N4CCN(C)CC4)cc3OC)nc1-2", "assayed.target": "Fibroblast", "Population Normal (%)": 89}
{"structure": "COc1ccc(-c2ccc3c(N4CCOCC4)nc(N4C[C@@H](C)O[C@@H](C)C4)nc3n2)cc1CO", "assayed.target": "Fibroblast", "Population Normal (%)": 81}

----------
Tested on: HEK-293T
run.description: Multiplex assay against HEK293T
Type: toxicity, cell-based
test.context: human, 12 h, 10 µM, compound concentration 10 uM, replicate 1
Param threshold (20%) applies to Population Healthy Nuclei (%); output T when value >= threshold, F when value < threshold.

{"molecule": "CCCS(=O)(=O)c1nc(NC2CC2)cc(-c2ccc3c(ccn3C3CC(C)(C)NC(C)(C)C3)c2)n1", "assigned.class": "F"}
{"molecule": "CN1C2CCC1CC(OC(c1ccc(F)cc1)c1ccc(F)cc1)C2.Cl (stereo not drawn)", "assigned.class": "T"}
{"molecule": "Cc1ccc2nc(NCCN)c3ncc(C)n3c2c1.O=C(O)C(F)(F)F.O=C(O)C(F)(F)F", "assigned.class": "T"}
{"molecule": "Cc1cc(C)c(S(=O)(=O)N(Cc2ccc(-c3cccc(S(C)(=O)=O)c3)cc2)Cc2ccc(C(F)(F)F)o2)c(C)c1", "assigned.class": "T"}
{"molecule": "Cc1cn(-c2cc(NC(=O)c3ccc(C)c(Nc4nccc(-c5cccnc5)n4)c3)cc(C(F)(F)F)c2)cn1", "assigned.class": "F"}
{"molecule": "C=CCn1c(=O)c2cnc(Nc3ccc(N4CCN(C)CC4)cc3)nc2n1-c1cccc(C(C)(C)O)n1", "assigned.class": "T"}
{"molecule": "CCCn1c(=O)c2[nH]c(-c3cnn(Cc4cccc(C(F)(F)F)c4)c3)nc2n(CC)c1=O", "assigned.class": "F"}
{"molecule": "O=C1N/C(=N/c2ccccc2F)S/C1=C\\c1ccc(C(=O)O)cc1", "assigned.class": "T"}
